# IC50 per entry
- testTarget: GSK3a (GST-full length GSK3a) (Homo sapiens, UniProt P49840)
- Construct: GST-full length GSK3a [SignalChem G08-10G]; purchased SignalChem G08-10G
- Sequence (P49840 whole entry): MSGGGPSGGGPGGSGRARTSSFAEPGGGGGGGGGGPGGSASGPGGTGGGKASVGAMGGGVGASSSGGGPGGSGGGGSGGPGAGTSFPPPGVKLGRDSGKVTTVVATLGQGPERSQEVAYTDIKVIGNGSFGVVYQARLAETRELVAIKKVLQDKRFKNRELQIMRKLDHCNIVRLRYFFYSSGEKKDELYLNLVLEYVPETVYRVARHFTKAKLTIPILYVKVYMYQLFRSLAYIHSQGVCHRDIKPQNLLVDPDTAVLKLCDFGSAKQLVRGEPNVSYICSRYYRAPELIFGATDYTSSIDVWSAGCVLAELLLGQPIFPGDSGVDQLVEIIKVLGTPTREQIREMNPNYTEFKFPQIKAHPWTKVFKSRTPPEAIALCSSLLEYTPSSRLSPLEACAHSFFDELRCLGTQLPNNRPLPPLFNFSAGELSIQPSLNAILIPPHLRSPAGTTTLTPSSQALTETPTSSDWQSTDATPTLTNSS
- assayProtocol: GSK3a TR-FRET kinase inhibition assay
- Assay type: biochemical
- testContext: 10 μM ATP; read-out: GSK3a 10 μM ATP Average IC50

Some solved cases for reference:
compound	measuredParameter	obsValue
CCC1(c2cccc(-c3ccnc4c3CCCC4)c2)C2=C(CC(C)(C)CC2=O)Nc2ncc(F)cc21 (single isomer, unassigned) [Compound 165A]	IC50	≤ 0.1 µM
CC1(C)CC(=O)C2=C(C1)Nc1ncccc1C2(C)c1ccccc1 (single isomer, unassigned) [Compound 101B]	IC50	5 to 20 µM
CCC1(c2ccccc2)C2=C(CC(C)(C)CC2=O)Nc2ncc(F)cc21 (single isomer, unassigned) [Compound 114A]	IC50	≤ 0.1 µM

Please tell me: IC50 of CC(C)(C)Cc1cnc2c(c1)C(C)(c1ccccc1)C1=C(CC(C)(C)CC1=O)N2 (single isomer, unassigned) [Compound 129B] , system GSK3a (GST-full length GSK3a) (Homo sapiens, UniProt P49840)?
20 to 60 µM

Please tell me: IC50 of CC(C)(C)Cc1cnc2c(c1)C(C)(c1ccccc1)C1=C(CC(C)(C)CC1=O)N2 (single isomer, unassigned) [Compound 129A] , system GSK3a (GST-full length GSK3a) (Homo sapiens, UniProt P49840)?
20 to 60 µM

Please tell me: IC50 of CCC1(c2cccc(-c3c(C)nn(C)c3C)c2)C2=C(CC(C)(C)CC2=O)Nc2ncccc21 (single isomer, unassigned) [Compound 150A] , system GSK3a (GST-full length GSK3a) (Homo sapiens, UniProt P49840)?
≤ 0.1 µM
